Reported Ki on D(1B) dopamine receptor (Homo sapiens, UniProt P21918) for assorted compounds, compiled from publications.
Sequence (P21918 whole entry): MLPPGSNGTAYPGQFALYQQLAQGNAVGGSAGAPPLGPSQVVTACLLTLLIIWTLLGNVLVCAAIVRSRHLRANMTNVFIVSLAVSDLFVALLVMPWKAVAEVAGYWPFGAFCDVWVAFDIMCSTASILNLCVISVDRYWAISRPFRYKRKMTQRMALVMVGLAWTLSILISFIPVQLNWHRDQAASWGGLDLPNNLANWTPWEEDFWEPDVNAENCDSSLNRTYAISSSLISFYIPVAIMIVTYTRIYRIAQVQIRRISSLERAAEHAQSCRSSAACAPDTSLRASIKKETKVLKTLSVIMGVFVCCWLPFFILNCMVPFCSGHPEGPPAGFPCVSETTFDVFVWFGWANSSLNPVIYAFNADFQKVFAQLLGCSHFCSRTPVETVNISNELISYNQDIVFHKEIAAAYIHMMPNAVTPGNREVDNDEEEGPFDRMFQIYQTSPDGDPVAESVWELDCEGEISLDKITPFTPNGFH

Here's what some known entries look like.
COMPOUND: Clc1ccc(N2CCN(CCCc3nc4ccccc4s3)CC2)cc1
Ki: > 10 µM
--
COMPOUND: O=c1ccc2c(N3CCCN(CCCCOc4ccn5nccc5c4)CC3)ccc(O)c2[nH]1
Ki: > 20 µM
--
COMPOUND: Fc1ccc(COC2CCN(Cc3ccc4[nH]cnc4c3)CC2)cc1F
Ki: > 10 µM
--
COMPOUND: CCOc1ccccc1N1CCN(Cc2cccs2)CC1
Ki: > 10 µM
--
COMPOUND: O=C1CCc2ccc(OCCCCN3CCCN(c4ccc(O)c5oc(=O)ccc45)CC3)cc2N1
Ki: > 20 µM

// each listed compound needs a value for Ki
1. CCOc1ccc(F)cc1NC(=O)c1ccccc1NS(=O)(=O)C1CC1
2. COc1ccc(NC(=O)N2CCN(c3ccccc3OC)CC2)cc1N1CCN(C)CC1
3. CN(CCC=C1c2ccccc2CCc2ccccc21)C(=O)c1ccc(OCCCN2CCCCC2)cc1
4. COc1ccc(CN(C)[C@H]2C3C4CC5C3C(=O)C3C5C4C32)cc1OC (some centres not stated)
5. COc1ccc(CCN2CCCc3ccccc3C2)cc1Cl

Output:
["> 4 µM", "> 10 µM", "> 1 µM", "> 10 µM", "> 10 µM"]
